All figures here come from paper PMC8260145.

# Tested on: human liver microsomes
# Protocol Summary: Inhibition of C152 metabolism in human liver microsomes
# Assay type: biochemical
# Test Parameters: read-out: IC50 ((+)-N-3-Benzylnirvanol); HLM(IHG); 30 μM C152
Test Readout: IC50 (µM)
Only the number, expressed in µM, is required.

Q. Recall the recorded IC50 for CC[C@@]1(c2ccccc2)NC(=O)N(Cc2ccccc2)C1=O [(+)-N-3-Benzylnirvanol, (S)-(+)-N-3-benzylnirvanol] with human liver microsomes and state it.
A. 16

----------
# Target Or System: recombinant human CYP3A4 (Homo sapiens, UniProt P08684)
# Sequence (P08684 2-503 limits assumed): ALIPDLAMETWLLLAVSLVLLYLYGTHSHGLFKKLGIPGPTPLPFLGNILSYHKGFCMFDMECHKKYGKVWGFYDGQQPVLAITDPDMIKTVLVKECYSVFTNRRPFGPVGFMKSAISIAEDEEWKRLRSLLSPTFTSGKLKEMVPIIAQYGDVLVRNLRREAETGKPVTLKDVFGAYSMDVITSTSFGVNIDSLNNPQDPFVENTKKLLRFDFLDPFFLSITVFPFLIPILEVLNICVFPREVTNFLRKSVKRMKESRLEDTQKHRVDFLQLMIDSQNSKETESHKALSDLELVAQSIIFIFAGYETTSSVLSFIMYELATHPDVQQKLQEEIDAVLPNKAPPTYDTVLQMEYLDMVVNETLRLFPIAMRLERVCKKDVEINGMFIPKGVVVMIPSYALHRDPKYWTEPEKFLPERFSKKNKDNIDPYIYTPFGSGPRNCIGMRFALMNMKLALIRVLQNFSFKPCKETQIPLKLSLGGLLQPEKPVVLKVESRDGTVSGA
# Protocol Summary: Inhibition of C152 metabolism in SS
# Test Parameters: read-out: IC50 ((+)-N-3-Benzylnirvanol); SS(3A4); 30 μM C152
Test Readout: IC50 (µM)
The response must be a number in µM with no trailing unit.

Q. Which IC50 value is on record for CC[C@@]1(c2ccccc2)NC(=O)N(Cc2ccccc2)C1=O [(+)-N-3-Benzylnirvanol, (S)-(+)-N-3-benzylnirvanol] ?
A. 27

----------
# Tested on: human liver microsomes
# Type: in vitro ADME
# Test Parameters: N-demethylation of C152; HLM(ODN), added CYP2A6 433 pmol/mg protein (ratio 1)
Test Readout: Km (µM)
Field format: number, assumed µM, no unit text.

Q. Which value of Km has been reported for CN(C)c1ccc2c(C(F)(F)F)cc(=O)oc2c1 in the records?
A. 4.57

----------
# Tested on: human liver microsomes
# Type: in vitro ADME
# Test Parameters: N-demethylation of C152; HLM(ODN), added CYP2A6 108 pmol/mg protein (ratio 0.25)
Test Readout: Km (µM)
Supply the numeric figure in µM, leaving out any unit text.

Q. I am curious: what Km value has been reported for CN(C)c1ccc2c(C(F)(F)F)cc(=O)oc2c1 [C152, 7-Dimethylamino-4-trifluromethylcoumarin] ?
A. 4.15

----------
# Tested on: human liver microsomes
# Protocol Summary: Inhibition of C152 metabolism in human liver microsomes
# Assay type: biochemical
# Test Parameters: read-out: IC50 ((+)-N-3-Benzylnirvanol); HLM(LBA); 30 μM C152
Test Readout: IC50 (nM)
Only the number, expressed in nM, is required.

Q. So what does the record say about IC50 for CC[C@@]1(c2ccccc2)NC(=O)N(Cc2ccccc2)C1=O [(+)-N-3-Benzylnirvanol, (S)-(+)-N-3-benzylnirvanol] ?
A. 510

----------
# Target Or System: recombinant human CYP2C19 (Homo sapiens)
# Sequence (P33261 whole entry): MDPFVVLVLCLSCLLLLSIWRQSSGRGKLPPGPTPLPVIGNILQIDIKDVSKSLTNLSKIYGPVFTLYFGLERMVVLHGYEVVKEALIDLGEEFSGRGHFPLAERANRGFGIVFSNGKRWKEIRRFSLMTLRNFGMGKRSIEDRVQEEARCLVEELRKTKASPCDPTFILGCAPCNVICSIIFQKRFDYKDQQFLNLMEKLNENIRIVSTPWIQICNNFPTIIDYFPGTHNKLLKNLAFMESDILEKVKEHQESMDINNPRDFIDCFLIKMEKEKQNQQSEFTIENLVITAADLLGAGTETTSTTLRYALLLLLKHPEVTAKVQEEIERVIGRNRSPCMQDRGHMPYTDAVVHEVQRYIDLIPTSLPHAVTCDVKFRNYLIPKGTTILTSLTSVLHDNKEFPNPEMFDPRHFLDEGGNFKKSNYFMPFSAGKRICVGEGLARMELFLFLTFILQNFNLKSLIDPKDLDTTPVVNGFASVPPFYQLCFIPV
# Protocol Summary: Inhibition of C152 metabolism in SS
Test Readout: pIC50
Schema: pIC50 number; meaning minus log10 of the concentration expressed in molar units.

Q. Endpoint output: pIC50 of Clc1ccc(Cc2ccncc2)cc1 . Value?
A. 6.67
